Target: BRD4 (BD1+BD2) bromodomain (Homo sapiens (Human), UniProt O60885)
Test: BRD4 binding inhibition (AlphaScreen, GST-BRD4 vs tetraacetylated histone H4 peptide)
Conditions: GST-BRD4 (BD1+BD2) / biotinylated acetyl-histone H4 (Lys5,8,12,16) peptide; read-out: IC50, BRD4 binding inhibition
Procedure: A mixture comprising 100 nM GST-BRD4 (BD1+BD2) and 100 nM biotinylated acetyl-histone H4 (Lys5,8,12,16) peptide was prepared in assay buffer (50 mM HEPES pH 7.4; 25 mM NaCl; 0.05% Tween 20; 0.1% bovine serum albumin (BSA); 10 mM dithiothreitol (DTT)). […] Then, the signals were measured with PerkinElmer Envision HTS Multilabel Reader using an alpha screen protocol of PerkinElmer. […]
Observable: IC50

// known answers, use as guide
{"Compound": "COc1ccccc1C(=O)NCCCCNc1nc2cc(-c3nc4ccccc4n3C)ccc2n2c(C)nnc12", "Measured target": "BRD4 (BD1+BD2) bromodomain (Homo sapiens (Human), UniProt O60885)", "IC50": "≤ 10 nM"}
{"Compound": "Cc1nnc2c(NCCCCNC(=O)[C@@H](NC(=O)OC(C)(C)C)C(C)C)nc3cc(N4CCOCC4)ccc3n12", "Measured target": "BRD4 (BD1+BD2) bromodomain (Homo sapiens (Human), UniProt O60885)", "IC50": "≤ 50 nM"}
{"Compound": "COc1cc2nc(NCCCCNC(=O)C(C)C)c3nnc(C)n3c2cc1OC", "Measured target": "BRD4 (BD1+BD2) bromodomain (Homo sapiens (Human), UniProt O60885)", "IC50": "≤ 50 nM"}
{"Compound": "COc1cc2nc(NCCCCNC(=O)[C@H](O)C(C)C)c3nnc(C)n3c2cc1OC", "Measured target": "BRD4 (BD1+BD2) bromodomain (Homo sapiens (Human), UniProt O60885)", "IC50": "≤ 50 nM"}
{"Compound": "Cc1nnc2c(NCCCCNC(=O)c3ccccc3)nc3cc(Cl)c(Cl)cc3n12", "Measured target": "BRD4 (BD1+BD2) bromodomain (Homo sapiens (Human), UniProt O60885)", "IC50": "≤ 50 nM"}
{"Compound": "COc1ccc2c(c1)nc(NCCCCNC(=O)NC1CCCCC1)c1nnc(C)n12", "Measured target": "BRD4 (BD1+BD2) bromodomain (Homo sapiens (Human), UniProt O60885)", "IC50": "≤ 50 nM"}

// fetch IC50 for CC(=O)Nc1ccc2c(c1)nc(NCCCCNC(=O)c1ccccc1)c1nnc(C)n12 ; system: BRD4 (BD1+BD2) bromodomain (Homo sapiens (Human), UniProt O60885)
≤ 50 nM

// fetch IC50 for CCNC(=O)NCCCCNc1nc2cc(OCCOC)ccc2n2c(C)nnc12 ; system: BRD4 (BD1+BD2) bromodomain (Homo sapiens (Human), UniProt O60885)
≤ 50 nM

---

pIC50 listing for selected compounds.
molecular target: BRD4 (BD1+BD2) bromodomain (Homo sapiens (Human), UniProt O60885); test: BRD4 binding inhibition (AlphaScreen, GST-BRD4 vs tetraacetylated histone H4 peptide); details: GST-BRD4 (BD1+BD2) / biotinylated acetyl-histone H4 (Lys5,8,12,16) peptide; read-out: IC50, BRD4 binding inhibition
pIC50: −log10 of the molar value.

{"Compound": "Cc1noc(C)c1-c1ccc2nc(NCCCCNC(=O)[C@@H](O)C(C)C)c3nnc(C)n3c2c1", "pIC50": "≥ 8.00"}
{"Compound": "Cc1nnc2c(NCCCCN)nc3cc(OC(C)C)ccc3n12", "pIC50": "≥ 8.00"}
{"Compound": "COCCOc1ccc2c(c1)nc(NCCCCNC(=O)[C@@H](NC(=O)CC(C)C)C(C)C)c1nnc(C)n12", "pIC50": "≥ 7.30"}
{"Compound": "COc1cc2nc(NCCCCNC(=O)CC(C)C)c3nnc(C)n3c2cc1C(F)(F)F", "pIC50": "≥ 7.30"}
{"Compound": "COCCOc1ccc2c(c1)nc(NCCCCNC(=O)C(C)(C)C(F)(F)F)c1nnc(C)n12", "pIC50": "≥ 8.00"}
{"Compound": "COCCOc1ccc2c(c1)nc(NCCCCNC(=O)c1ccccc1Cl)c1nnc(C)n12", "pIC50": "≥ 7.30"}
{"Compound": "COc1cc2nc(NCCCCNC(=O)CC(C)C)c3nnc(C)n3c2cc1OC", "pIC50": "≥ 7.30"}
{"Compound": "CCCOC(=O)NCCCCNc1nc2cc(-c3nc4ccccc4n3C)ccc2n2c(C)nnc12", "pIC50": "≥ 8.00"}

Give a short answer stating reported pIC50 for COc1cc2nc(NCCCCNC(=O)CC(C)C)c3nnc(C)n3c2c(OC)c1OC .
≥ 7.30

Give a short answer stating reported pIC50 for Cc1nnc2c(NCCCCNC(=O)[C@@H](NC(=O)[C@@H](F)C(C)C)C(C)C)nc3cc(N4C[C@@H](C)O[C@@H](C)C4)ccc3n12 .
≥ 7.30

Give a short answer stating reported pIC50 for COCCOc1ccc2c(c1)nc(NCCCCNC(=O)[C@@H](O)C(C)C)c1nnc(C)n12 .
≥ 8.00

Give a short answer stating reported pIC50 for COc1ccc2c(c1)nc(NCCCCNC(=O)[C@@H](F)C(C)C)c1nnc(C)n12 .
≥ 7.30

Give a short answer stating reported pIC50 for COCCOc1ccc2c(c1)nc(NCCCCNC(=O)[C@@H](N)C(C)C)c1nnc(C)n12 (stereo in doubt) .
≥ 7.30

Give a short answer stating reported pIC50 for COc1ccc2nc(NCCCCNC(=O)[C@H](O)C(C)C)c3nnc(C)n3c2c1 .
≥ 7.30

Give a short answer stating reported pIC50 for Cc1nnc2c(NCCCCNC(=O)C(C)(C)C)nc3ccccc3n12 .
≥ 7.30

---

target: BRD4 (BD1+BD2) bromodomain (Homo sapiens (Human), UniProt O60885); assay: BRD4 binding inhibition (AlphaScreen, GST-BRD4 vs tetraacetylated histone H4 peptide); conditions: GST-BRD4 (BD1+BD2) vs biotinylated acetyl-histone H4 peptide, AlphaScreen; read-out: BRD4 IC50
pIC50: −log10 of the molar value.
Observable: pIC50

{"Molecular string": "COCCOc1cc2nc(NCCCCNC(=O)c3ccccc3Cl)c3nnc(C)n3c2cc1OCCOC", "Measured result": 7.59}
{"Molecular string": "Cc1nnc2c(NCCCCNC(=O)CC(C)C)nc3cc(N4CCSCC4)ccc3n12", "Measured result": 7.27}
{"Molecular string": "COCCOc1ccc2c(c1)nc(NCCCCNC(=O)[C@@H](NC(=O)[C@@H](O)C(C)C)C(C)C)c1nnc(C)n12", "Measured result": 7.82}
{"Molecular string": "Cc1nnc2c(NCCCCNC(=O)CC(C)C)nc3ccc(N)cc3n12", "Measured result": 7.92}

1. CCCNc1ccc2nc(NCCCCNC(=O)CC(C)C)c3nnc(C)n3c2c1
2. COCCn1c(-c2ccc3c(c2)nc(NCCCCNC(=O)CC(C)C)c2nnc(C)n23)nc2ccccc21
Hello, I am sorting some records. Could you say if 1 or 2 has the smaller pIC50 value? Please indicate the selected item by its label.
1

I. COc1ccc2c(c1)nc(NCCCCC(=O)NC(C)(C)C)c1nnc(C)n12
II. COc1ccc2c(c1)nc(NCCCCNC(=O)OC(C)(C)C)c1nnc(C)n12
Return label of the item with the larger pIC50. Candidates: I , II . Please indicate the selected item by its label.
I

1. COc1cccc2c1nc(NCCCCNC(=O)C(C)(C)C)c1nnc(C)n12
2. COc1cc(N)c(NC(=O)c2ccc3c(c2)nc(NCCCCNC(=O)CC(C)C)c2nnc(C)n23)cc1OC
3. Cc1nnc2c(NCCCCNC(=O)CC(C)C)nc3cc(C(=O)O)ccc3n12
4. COc1cc2nc(NCCCCNC(=O)CCC(C)C)c3nnc(C)n3c2cc1OC
5. CCCNc1ccc2c(c1)nc(NCCCCNC(=O)CC(C)C)c1nnc(C)n12
Sort (5 compounds) by pIC50: min first. Sort the labels as requested; that list is your answer.
1, 5, 3, 2, 4

---

molecular target: BRD4 (BD1+BD2) bromodomain (Homo sapiens (Human)); test: BRD4 binding inhibition (AlphaScreen, GST-BRD4 vs tetraacetylated histone H4 peptide); conditions: GST-BRD4 (BD1+BD2) vs biotinylated acetyl-histone H4 peptide, AlphaScreen; read-out: BRD4 IC50
pIC50: −log10 of the molar value.
Observable: pIC50

P. Cc1ccc2[nH]c(-c3ccc4c(c3)nc(NCCCCNC(=O)CC(C)C)c3nnc(C)n34)nc2c1
Q. COc1cc2nc(NCCCCNC(=O)N3CCOCC3)c3nnc(C)n3c2cc1OC
Hello, I am sorting some records. Could you say if P or Q has the smaller pIC50 value? Please indicate the selected item by its label.
Q
(Q: 7.39, P: 7.77)

---

Target: BRD4 (BD1+BD2) bromodomain (Homo sapiens (Human), UniProt O60885)
Test: BRD4 binding inhibition (AlphaScreen, GST-BRD4 vs tetraacetylated histone H4 peptide)
Conditions: GST-BRD4 (BD1+BD2) vs biotinylated acetyl-histone H4 peptide, AlphaScreen; read-out: BRD4 IC50
Procedure: A mixture comprising 100 nM GST-BRD4 (BD1+BD2) and 100 nM biotinylated acetyl-histone H4 (Lys5,8,12,16) peptide was prepared in assay buffer (50 mM HEPES pH 7.4; 25 mM NaCl; 0.05% Tween 20; 0.1% bovine serum albumin (BSA); 10 mM dithiothreitol (DTT)). […] Then, the signals were measured with PerkinElmer Envision HTS Multilabel Reader using an alpha screen protocol of PerkinElmer. […]
pIC50: −log10 of the molar value.
Observable: pIC50

{"Molecular string": "COc1ccc2c(c1)nc(NCCCCNC(=O)COC(C)=O)c1nnc(C)n12", "Measured result": 7.20}

a. COc1cc2nc(NCCCCNC(=O)c3ccc(C)nc3Cl)c3nnc(C)n3c2cc1OC
b. COCCOc1ccc2c(c1)nc(NCCCCNC(=O)N1CCOCC1)c1nnc(C)n12
Hello, I am sorting some records. Could you say if a or b has the smaller pIC50 value? Please indicate the selected item by its label.
b
